- system: T1, Smad7 PY peptide Ac-ELESPPPPYSRYPMD-NH2 (203-217) (human)
- T1 peptide: Ac-ELESPPPPYSRYPMD-NH2
- test summary: ITC
pKd: −log10 of the molar value.
value kind: pKd

{"columns": ["binder", "value kind", "quantitative result"],
 "data": [
  ["Smurf2 WW2-WW3 pair (domain or fragment) PPDLPEGYEQRTTQQGQVYFLHTQTGVSTWHDPRVPRDLSNINCEELGPLPPGWEIRNTATGRVYFVDHNNRTTQFTDPRLSAN", "pKd", 5.30],
  ["Smurf1 WW1-WW2 pair (domain or fragment) SPELPEGYEQRTTVQGQVYFLHTQTGVSTWHDPRIPRDLNSVNCDELGPLPPGWEVRSTVSGRIYFVDHNNRTTQFTDPRLH", "pKd", 5.30]
]}
